Parameter growth: see the listing below.
Tested on: A498 renal
assay summary: NCI-60 one-dose screen, 48 h (100 = growth as untreated, 0 = no growth, -100 = all killed)
conditions: 10 µM unless noted
Compounds without any hit were thinned out: in the full panel of roughly 83,000, 20% have a hit.
Could you give me the number in %? Just the number is fine.

// known answers, use as guide
C[C@@H](Nc1c(C#N)cnc2ccc(-c3cnc4[nH]ncc4c3)cc12)c1ccccc1    -40.2
Cn1cc(-c2cc(N)n3nc(-c4c[nH]c5ccc(Cl)cc45)cc3n2)c2cc(Br)cnc21    29
CN(C)c1nc(NCCNS(=O)(=O)c2ccc(C3=Nc4c(N)nc(N)nc4NC(c4ccc(Cl)cc4)C3)cc2)nc(N2CCOCC2)n1 (stereo not given)    108

Noted growth for CCOc1ccc2[nH]c(=O)c(C(c3nnnn3CC3CCCO3)N3CCN(Cc4ccccc4)CC3)cc2c1 (stereo not given) , tested on A498 renal: 76

Noted growth for C#CCN(C)CCCOc1ccc(N(CC)C(=O)c2cc(C(C)C)c(O)cc2O)cc1Cl , tested on A498 renal: 21.6
